assay: physchem
READOUT TYPE: solubility in PFPHP

1) CCCCC(CCCC)OC(=O)CCCCCCCCCCOC(=O)Cc1ccc(N=c2cc3oc4cc(N(C)C)ccc4nc-3c3ccccc23)cc1; poorly soluble
2) S=C(NCc1cccc(CNC(=S)Nc2ccccc2)c1)Nc1ccccc1; poorly soluble
3) CCCCCCCCCCCCCCCCCCOC(=O)c1ccncc1 [Hydrogen Ionophre IV]; poorly soluble
